Assay: chemical genetic growth profiling, strain panel (AID 1159580);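 further: tested at 20 µM; growth read once vehicle control cultures reached saturation at 30 °C; 1 = growth at the plate median or of vehicle wells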
Conditions: S. cerevisiae deletion strains, growth OD, locus YHR142W, strain chs7
Out of some 5,500 compounds screened, about 2,000 (36%) were called active. About 18% were inconclusive and are not listed. No stated cut-off is given here; in the data, active means normalized growth mostly below about 0.91 (no sharp cut-off); inconclusive means no clear call, values can overlap the other calls; inactive means mostly above about 0.92. The list shows a part of the results.
Use one of these outcomes when replying: active, inactive

Answered examples (2):
INSERT INTO results (molecule, answer_label) VALUES
  ('COc1ccc(/C=C/c2cc(O)cc(O)c2)cc1', 'inactive'),
  ('NC(=O)c1cnccn1', 'inactive');

Exercise: Hi, sorry to bother you, what did the test record for COC(=O)[C@H]1[C@H]2C[C@@H]3c4[nH]c5cc(OC)ccc5c4CCN3C[C@H]2C[C@@H](OC(=O)c2cc(OC)c(OC)c(OC)c2)[C@@H]1OC ?
Key: inactive

Exercise: Would you kindly repeat that for CC1(C)O[C@@H]2[C@@H](CO[C@@]3(COS(N)(=O)=O)OC(C)(C)O[C@@H]23)O1 ?
Key: inactive

Exercise: Would you kindly repeat that for c1ccc(-c2ccc(C(c3ccccc3)n3ccnc3)cc2)cc1 (stereo not given) ?
Key: active

----------
Experiment: chemical genetic growth profiling, strain panel (AID 1159580);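 further: tested at 20 µM; growth read once vehicle control cultures reached saturation at 30 °C; 1 = growth at the plate median or of vehicle wells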
Conditions: S. cerevisiae deletion strains, growth OD, locus YNL322C, strain KRE1 (second series), stronger effect = lower value
The campaign covered roughly 5,500 compounds. About 2,000 (36%) were called active. Inconclusive results (about 18%) are left out. This is one part of the list.
For each entry below, report its normalized growth value.

INSERT INTO assay_data (molecule, result) VALUES
  ('S=c1[nH]c2ccccc2s1', '1.02 (inactive)'),
  ('CC[C@@]1(C2O[C@@H](C3O[C@@](O)(CC)[C@H](C)C[C@@H]3C)C[C@@H]2C)CC[C@H]([C@]2(C)CCC3(C[C@H](O)[C@@H](C)[C@@H]([C@H](C)[C@@H](OC)[C@H](C)C(=O)O)O3)O2)O1 (stereo partly specified)', '0.962 (inactive)'),
  ('CCCN(CCC)CCc1cccc2c1CC(=O)N2', '0.985 (inactive)'),
  ('CCCc1cc(OC)c2c(c1)OCO2', '0.976 (inactive)');

For every record below, what is its normalized growth?
1. Nc1c(Br)cc(Br)cc1CNC1CCC(O)CC1 (stereo unspecified)
2. O=C(O)c1cc(O)c(O)c(O)c1
3. CCOC(=O)C1=C[C@]2(CC)CCCN3CCc4c(n1c1ccccc41)[C@@H]32
4. O=C(O)c1cc(=O)c(O)c2c(O)c(O)c(O)cc2c1
5. C=CCc1cc(OC)c2c(c1OC)OCO2
6. NC(=O)c1cnccn1
7. O=C(O)c1ccc2c(c1)OCO2
8. O=C(O)P(=O)(O)O

Key:
1. 1.02 (inactive)
2. 1.03 (inactive)
3. 1.02 (inactive)
4. 0.208 (active)
5. 0.933 (inactive)
6. 0.984 (inactive)
7. 0.991 (inactive)
8. 0.981 (inactive)

----------
Test: chemical genetic growth profiling, strain panel (AID 1159580);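 further: tested at 20 µM; growth read once vehicle control cultures reached saturation at 30 °C; 1 = growth at the plate median or of vehicle wells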
Conditions: S. cerevisiae deletion strains, growth OD, locus YHR079C, strain IRE1 (second series), stronger effect = lower value
The whole screen tested about 5,500 compounds, of which about 2,000 (36%) were called active. Another 18% or so got no clear call; they are omitted. Some of the results follow.
Endpoint: normalized growth

Below, 3 compounds whose answers are already recorded.
INSERT INTO results (compound, result) VALUES
  ('C[C@@]12C(=O)OC(=O)[C@]1(C)C1CCC2O1', '0.782 (active)'),
  ('CC1=C(/C=C/C(C)=C/C=C/C(C)=C/CO)C(C)(C)CCC1', '1.01 (inactive)'),
  ('CCOP(=S)(OCC)SCSCC', '1.01 (inactive)');

For every record below, what is its normalized growth?
1. CCOP(=S)(OCC)SCCSCC
2. CCOP(=S)(OCC)SCSP(=S)(OCC)OCC
3. O=C(O)CCCCC1SCC2NC(=O)NC21 (stereo unspecified)
4. CO[C@@H]1[C@@H](O[C@@H]2O[C@H](C)[C@@H](O[C@H]3C[C@@](C)(O)[C@H](O)[C@H](C)O3)[C@H](N(C)C)[C@H]2O)[C@@H](CC=O)C[C@@H](C)[C@@H](O[C@H]2CC[C@H](N(C)C)[C@@H](C)O2)/C=C/C=C/C[C@H](C)OC(=O)C[C@H]1O

Key:
0.997 (inactive)
0.989 (inactive)
1.02 (inactive)
1 (inactive)

For every record below, what is its normalized growth?
1. CC(=O)OCC(=O)[C@@]12OC(C)(C)O[C@@H]1CC1C3C[C@H](F)C4=CC(=O)C=C[C@]4(C)[C@@]3(F)[C@@H](O)C[C@@]12C (stereo partly specified)
2. CC(=O)N[C@@H]1[C@@H](C(O)[C@H](O)CO)O[C@](O)(C(=O)O)C[C@@H]1O (stereo partly specified)
3. CC1=C(/C=C/C(C)=C/C=C/C(C)=C/C(=O)O)C(C)(C)CCC1
4. CC1=C(/C=C/C(C)=C/C=C/C(C)=C\C(=O)O)C(C)(C)CCC1

Key:
1.01 (inactive)
1.01 (inactive)
1.01 (inactive)
0.988 (inactive)
